Where do these numbers come from? They come from PubChem BioAssay (NCI).

TGI: recorded values
- Test system: IGROV1 ovarian
- test: NCI tumour cell line growth inhibition, 48 h
Use µM as the unit, but write only the number.

Nc1c2c(nc3ccccc13)-c1ccccc1CCC2    37.7
COC(=O)/C=C1\C(=O)N(C(C)=O)c2ccccc21    22.4
O=C(NCCc1ccc(F)cc1)c1cc(/C=C/c2cc(O)ccc2O)ccc1O    7.66

Now look at this one.
-- ask Find the recorded TGI belonging to "O=C1/C(=C/c2ccc(F)cc2)CN(Cc2cn(CCNc3ccnc4cc(Cl)ccc34)nn2)C/C1=C\c1ccc(F)cc1" and report it.
-- reply 2.93

---

- System: HCT-116 colon
- test: NCI tumour cell line growth inhibition, 48 h
TGI: recorded values

The examples below pair each entry with its known result.
Cc1cc(C)cc(NC(=O)CCC(=O)C2CCC/C2=N\NC(=O)C(=O)NN)c1 (centres undefined)    > 100 µM
O=C(CSCC(=O)N/N=C/c1ccc(F)cc1)N/N=C/c1ccc(F)cc1    > 100 µM
CC(=O)Nc1ccc(S(=O)(=O)/N=c2/sc(S(N)(=O)=O)nn2C)cc1    > 100 µM

-- ask Find the recorded TGI belonging to "CO/C=C(/C(=O)OC)c1ccccc1[C@H]1C[C@@H]1c1ccc(OC)cc1" and report it.
-- reply 44.5 µM

-- ask Find the recorded TGI belonging to COC(=O)CC[C@@H](NC(=O)C(C)NC(=O)COC1C(O)C(COC(=O)CCCCCCCCCCNC(=O)c2ccc([N+](=O)[O-])c3[nH]c4cc(Br)ccc4c(=O)c23)OC(OCc2ccccc2)C1NC(C)=O)C(N)=O (some centres undefined) and report it.
-- reply > 100 µM

-- ask Find the recorded TGI belonging to "COc1ccc(NC(=O)CC(=O)n2nc(-c3ccccc3)c(N=Nc3ccc(C)cc3)c2-c2ccccc2)cc1" and report it.
-- reply > 71 µM

---

- Tested on: 786-0 renal
- test: NCI tumour cell line growth inhibition, 48 h; in the data active = GI50 below about 0.43 µM; inactive = the rest
Give your call using only these classes: YES (active), NO (inactive)

CC(=O)c1c[nH]c2ccc(-c3ccnc(Nc4ccc(NC(=O)c5cccc(F)c5)c(CN5CCOCC5)c4)n3)cc12    YES

-- ask Look up the recorded call for COc1cc(C2C3=C(COC3=O)N(CCO)c3cc4c(cc32)OCCO4)cc(OC)c1O (centres undefined) in this test.
-- reply NO

-- ask Look up the recorded call for "COc1ccc(-c2ccc(/C=N/n3cnn(CN4CCN(C)CC4)c3=S)o2)c([N+](=O)[O-])c1" in this test.
-- reply NO

-- ask Look up the recorded call for "O=C(CCCCCn1c2ccccc2c2c3c(c4c5ccccc5[nH]c4c21)C(=O)N(O)C3=O)N1CCOCC1" in this test.
-- reply NO

---

- Tested on: A549 NSCLC
- test: NCI tumour cell line growth inhibition, 48 h
TGI: recorded values

The examples below pair each entry with its known result.
COc1cc2c3c(c1OC)C1(C=CC(=O)C=C1)CC3N(C(=O)OC(C)(C)C(Cl)(Cl)Cl)CC2 (stereo not given)    49.4 µM
C=CCn1c(-c2ccc(N=NNc3ccc(-c4n[nH]c(=S)n4CC=C)cc3)cc2)n[nH]c1=S    > 100 µM
COC(=O)c1nc(N)[nH]c(=O)c1-c1ccc(Cl)cc1    > 100 µM
O=C(NC12CC3CC(CC(C3)C1)C2)n1cnc2cncnc21    > 100 µM

Now look at this one.
-- ask Find the recorded TGI belonging to "COc1cc(Oc2cnc3cc(N)cc(N)c3n2)cc(OC)c1OC" and report it.
-- reply > 100 µM

---

- Tested on: DMS 114 small cell lung
- test: NCI tumour cell line growth inhibition, 48 h
readout_kind: TGI

CC(=O)OCC1OC(n2c(-c3ccc(N)cc3)cc(-c3ccco3)c(C#N)c2=O)C(OC(C)=O)C(OC(C)=O)C1OC(C)=O (stereo not given)    > 50 µM
COC(=O)c1ccc2n[se]nc2c1    > 100 µM
NNC(=S)N/N=C(\c1nc2ccc(Cl)cc2[nH]c1=O)C(O)c1ccc(Cl)cc1Cl (stereo not given)    > 100 µM
Cc1cccc2c1NC(c1c(C)[nH]c3ccccc13)C2 (stereo not given)    > 100 µM

Now look at this one.
-- ask Find the recorded TGI belonging to "c1ccc(C[P+]2(c3ccccc3)CCCCC2)cc1" and report it.
-- reply > 100 µM

---

- Tested on: SNB-75 CNS
- test: NCI tumour cell line growth inhibition, 48 h
TGI: recorded values

COc1ccc(/C=C/C=C2C(=O)NC(=S)NC2=O)cc1    47.2 µM
CC(=O)O/N=C1\C=Cc2c(no[n+]2[O-])C1=O    35.5 µM
CC([C@H]1CCC2C3CCC4C(=O)C(NC=O)=CC[C@]4(C)C3CC[C@@]21C)N(C)C (stereo partly specified)    15.5 µM
COc1ccc(-c2cc(-c3ccco3)c(C#N)c(=O)n2C2OC(OC(=O)c3ccccc3)C(OC(=O)c3ccccc3)C2OC(=O)c2ccccc2)cc1 (stereo unspecified)    > 100 µM
Oc1ccc(Br)cc1CN1CCN(Cc2ccc(Cl)cc2)CC1    > 100 µM

-- ask Find the recorded TGI belonging to "COC(=O)c1ccc2n[se]nc2c1" and report it.
-- reply > 100 µM

-- ask Find the recorded TGI belonging to "Cc1cc(S(=O)(=O)Nc2nc(N)n(-c3ccccc3)n2)c(S)cc1Cl" and report it.
-- reply > 100 µM

-- ask Find the recorded TGI belonging to "CCOC(=O)n1c2ccccc2c2c(O)c(OC)c3c(c21)C(=O)NC3=O" and report it.
-- reply > 100 µM

-- ask Find the recorded TGI belonging to "O=C(Nc1ccc(Cl)cc1Cl)c1c/c(=N\O)c2ccc(O)cc2o1" and report it.
-- reply > 100 µM

-- ask Find the recorded TGI belonging to "NCCCCN(CCCN)C(=O)OCc1ccccc1" and report it.
-- reply > 100 µM

-- ask Find the recorded TGI belonging to "O=C(O)C(=O)/C=C\c1ccc(Cl)cc1" and report it.
-- reply > 100 µM

---

TGI: recorded values
- System: UO-31 renal
- test: NCI tumour cell line growth inhibition, 48 h

N#CC1=C(N)NC(=S)NC1c1ccc(-c2ccc(-c3nc4ccccc4s3)cc2)o1 (configuration not stated)    > 50 µM
O=C(CSCC(=O)N/N=C/c1ccc(F)cc1)N/N=C/c1ccc(F)cc1    > 100 µM
Clc1cc(Cl)c2n[se]nc2c1    > 100 µM
c1ccc2c3c(c(N4CCNCC4)nc2c1)CCCC3    16.3 µM
CC(=O)NC1=NC(=O)/C(=C/c2ccc(Cl)cc2Cl)N1C    > 100 µM
CC(=O)OC1CC[C@@]2(C)C(CC(OC3OC(CO)C(O)C(O)C3O)[C@]3(C)C2CCC24CC23CC[C@H]4C(C)CC(O)[C@@H](O)C(C)(C)O)C1(C)C (some centres not stated)    > 50 µM

Now look at this one.
-- ask Notebook: pull reported TGI for UO-31 renal, entry Cc1cc(C)c2c(=O)n(CC(O)CN3CCN(c4ncccn4)CC3)sc2n1 (configuration not stated)
-- reply 30 µM

---

- System: HOP-62 NSCLC
- test: NCI tumour cell line growth inhibition, 48 h
readout_kind: TGI (µM)
Use µM as the unit, but write only the number.

C/C(=N\NC(=S)N/N=C(\C)c1ccccn1)c1ccccn1    5.28

-- ask Find the recorded TGI belonging to "Cc1cc(C)c2nc(Nc3nc(C)c(C)c(=O)[nH]3)nc(C)c2c1" and report it.
-- reply 8.82

-- ask Find the recorded TGI belonging to COC1=CC(=O)c2c(O)c3c(c(O)c2C1=O)CC(C)(O)OC3 (centres undefined) and report it.
-- reply 12.7

-- ask Find the recorded TGI belonging to "CCOC(=O)C(=C=Cc1cccs1)C(=O)c1ccccc1" and report it.
-- reply 33.9

---

- System: RXF 393 renal
- test: NCI tumour cell line growth inhibition, 48 h; in the data active = GI50 below about 0.43 µM; inactive = the rest
Give your call using only these classes: True (active), False (inactive)

Examples with answers:
CC(=O)c1c[nH]c2ccc(-c3ccnc(Nc4ccc(NC(=O)c5cccc(F)c5)c(CN5CCOCC5)c4)n3)cc12    True
O=C(NCCc1ccccc1)C(c1csc2ccccc12)N(C(=O)CCl)c1ccc(-c2cnco2)cc1 (stereo not drawn)    True
COc1ccc(C2CC(c3cccc(Nc4ccnc5cc(Cl)ccc45)c3)=NN2c2ccccc2)cc1 (stereo not drawn)    False

-- ask Look up the recorded call for "CC(=N\O)/C(C)=N/O.CC(=N\O)/C(C)=N/O.[Pd]" in this test.
-- reply False

-- ask Look up the recorded call for "Cc1c(Br)cccc1NC(=O)c1sc2nc3c(cc2c1N)CN(Cc1ccccc1)CC3" in this test.
-- reply True

-- ask Look up the recorded call for "O=C(CCCCCn1c2ccccc2c2c3c(c4c5ccccc5[nH]c4c21)C(=O)N(O)C3=O)N1CCOCC1" in this test.
-- reply False

-- ask Look up the recorded call for "Cc1cc(C)c2nc(Nc3nc(C)c(C)c(=O)[nH]3)nc(C)c2c1" in this test.
-- reply False

-- ask Look up the recorded call for "CCSc1sc(-c2ccc(C)cc2)nc1[P+](c1ccccc1)(c1ccccc1)c1ccccc1" in this test.
-- reply True
